meta.source: ChEMBL document CHEMBL3046832

Tested on: MCF7
PROCEDURE SUMMARY: Cytotoxicity against Homo sapiens (human) MCF7 cells after 48 hr by SRB assay
Type: functional
CONDITION SET: MCF7, 48 h
MEASURED ENDPOINT: GI50 (µM)
Quick reminder: number only, in µM, skip the unit.

Some solved cases for reference:
{"columns": ["COMPOUND", "GI50 / µM"],
 "data": [
  ["O=C(Nc1ccccc1)NS(=O)(=O)c1ccc(N2N=C3c4ccccc4CC3C2c2cccnc2)cc1 (stereo not drawn)", 27],
  ["O=S(=O)(/N=c1\\scc(-c2ccccc2)n1-c1ccccc1)c1ccc(N2N=C3c4ccccc4CC3C2c2cccs2)cc1 (stereo not drawn)", 29.1],
  ["O=C1CCS/C(=N\\S(=O)(=O)c2ccc(N3N=C4c5ccccc5CC4C3c3cccs3)cc2)N1C(=O)c1ccccc1 (stereo not drawn)", 9.1],
  ["O=C(Nc1ccccc1)NS(=O)(=O)c1ccc(-n2nc3c(c2-c2cccs2)Cc2ccccc2-3)cc1", 13.4],
  ["O=C1CCS/C(=N\\S(=O)(=O)c2ccc(N3N=C4c5ccccc5CC4C3c3cccs3)cc2)N1c1ccccc1 (stereo not drawn)", 29.1]
]}

Bench note: what GI50 did O=C1CS/C(=N\S(=O)(=O)c2ccc(N3N=C4c5ccccc5CC4C3c3cccs3)cc2)N(c2ccccc2)C1 (stereo not drawn) show?
88.8

Then what about the compound O=S(=O)(NC(=S)Nc1ccccc1)c1ccc(N2N=C3c4ccccc4CC3C2c2cccs2)cc1 (stereo not drawn) ?
3.1

* * *

Each entry below lists one item and its recorded GI50 value.
System: HCT-116
PROCEDURE SUMMARY: Cytotoxicity against Homo sapiens (human) HCT116 cells after 48 hr by SRB assay
Format: functional
CONDITION SET: HCT-116, 48 h
Write the quantity with the unit trailing the number.

{"columns": ["MOLECULE", "GI50"],
 "data": [
  ["O=C1CS/C(=N\\S(=O)(=O)c2ccc(N3N=C4c5ccccc5CC4C3c3cccs3)cc2)N(c2ccccc2)C1 (configuration not stated)", "12.5 µM"],
  ["NS(=O)(=O)c1ccc(-n2nc3c(c2-c2cccs2)Cc2ccccc2-3)cc1", "7.67 µM"],
  ["O=C(NC1CCCCC1)NS(=O)(=O)c1ccc(-n2nc3c(c2-c2cccs2)Cc2ccccc2-3)cc1", "31.6 µM"],
  ["O=C(c1ccccc1)n1c(-c2ccccc2)cs/c1=N\\S(=O)(=O)c1ccc(N2N=C3c4ccccc4CC3C2c2cccs2)cc1 (configuration not stated)", "30.5 µM"],
  ["O=C1CS/C(=N\\S(=O)(=O)c2ccc(N3N=C4c5ccccc5CC4C3c3cccs3)cc2)N1C(=O)c1ccccc1 (configuration not stated)", "22 µM"]
]}

Bench note: what GI50 did O=S(=O)(NC(=S)Nc1ccccc1)c1ccc(N2N=C3c4ccccc4CC3C2c2cccs2)cc1 (configuration not stated) show?
15.1 µM

Then what about the molecule O=C(Nc1ccccc1)NS(=O)(=O)c1ccc(N2N=C3c4ccccc4CC3C2c2cccnc2)cc1 (configuration not stated) ?
15.3 µM

* * *

Test system: MDA-MB-231
PROCEDURE SUMMARY: Cytotoxicity against Homo sapiens (human) MDA-MB-231 cells after 48 hr by SRB assay
Type: functional
CONDITION SET: MDA-MB-231, 48 h
Each entry below lists one item and its recorded GI50 value.
Quick reminder: number only, in µM, skip the unit.

Some solved cases for reference:
{"columns": ["COMPOUND", "GI50 [µM]"],
 "data": [
  ["NS(=O)(=O)c1ccc(-n2nc3c(c2-c2cccs2)Cc2ccccc2-3)cc1", 17.3],
  ["O=C1CS/C(=N\\S(=O)(=O)c2ccc(N3N=C4c5ccccc5CC4C3c3cccs3)cc2)N1C(=O)c1ccccc1 (centres undefined)", 44.6],
  ["O=C1CCS/C(=N\\S(=O)(=O)c2ccc(N3N=C4c5ccccc5CC4C3c3cccs3)cc2)N1C(=O)c1ccccc1 (centres undefined)", 5.77]
]}

Bench note: what GI50 did O=C(NC(=S)NS(=O)(=O)c1ccc(N2N=C3c4ccccc4CC3C2c2cccs2)cc1)c1ccccc1 (centres undefined) show?
22.5
